Consider the following compounds; for each one, report its pIC50.
Molecular target: Beta-2 adrenergic receptor (Homo sapiens)
Experiment: Binding affinity to the human beta-2 adrenergic receptor assayed using [125I]iodocyanopindolol as radioligand in CHO cells
Numbers only, as −log10 of the molar value.

// worked examples, pIC50 included
N#CN/C(=N\c1cccc(Oc2ccccc2)c1)Nc1ccc(CCNC[C@H](O)c2cccnc2)cc1; 7.40
N#CN/C(=N\c1ccc(I)cc1)Nc1ccc(CCNC[C@H](O)c2cccnc2)cc1; 6.77

Proceed to the following item.
For record `NC(=O)c1cccc(N/C(=C/[N+](=O)[O-])Nc2ccc(CCNC[C@H](O)c3cccnc3)cc2)c1` the listed pIC50 is 5.92

---

Target: Beta-3 adrenergic receptor (Homo sapiens)
Assay: In vitro maximum activation of adenylyl cyclase compared to isoproterenol.
Assay type: functional
Sequence (P13945 whole entry, looked up): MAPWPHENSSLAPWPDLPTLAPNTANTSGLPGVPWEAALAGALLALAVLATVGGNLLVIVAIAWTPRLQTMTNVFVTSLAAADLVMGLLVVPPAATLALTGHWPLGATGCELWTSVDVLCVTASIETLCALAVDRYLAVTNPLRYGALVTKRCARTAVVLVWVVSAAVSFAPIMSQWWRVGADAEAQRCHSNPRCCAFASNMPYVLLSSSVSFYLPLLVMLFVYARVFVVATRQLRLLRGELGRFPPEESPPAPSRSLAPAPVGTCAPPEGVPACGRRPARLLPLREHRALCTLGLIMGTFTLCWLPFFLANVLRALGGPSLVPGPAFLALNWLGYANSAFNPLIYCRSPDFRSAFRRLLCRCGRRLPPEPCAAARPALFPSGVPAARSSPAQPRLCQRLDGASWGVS
measurement.label: Activation (%)
Give bare numbers, in %.

N#CN/C(=N\c1cc(Cl)cc(Cl)c1)Nc1ccc(CCNC[C@H](O)c2cccnc2)cc1; 72

Look up Activation for the entries below, preserving their order.
1. N#CN/C(=N\c1ccc2ccccc2c1)Nc1ccc(CCNC[C@H](O)c2cccnc2)cc1
2. O=[N+]([O-])/C=C(\Nc1ccc(CCNC[C@H](O)c2cccnc2)cc1)Nc1cccc(F)c1
3. N#CN/C(=N\c1cccc(F)c1)Nc1ccc(CCNC[C@H](O)c2cccnc2)cc1
4. N#CN/C(=N\c1ccc(I)cc1)Nc1ccc(CCNC[C@H](O)c2cccnc2)cc1
5. O=[N+]([O-])/C=C(\Nc1ccc(CCNC[C@H](O)c2cccnc2)cc1)Nc1cc(Cl)cc(Cl)c1

output:
1. 41
2. 79
3. 69
4. 38
5. 85

---

Consider the following molecules; for each one, report its IC50.
Biological target: Beta-2 adrenergic receptor (Homo sapiens, UniProt P07550)
Sequence (P07550 whole entry): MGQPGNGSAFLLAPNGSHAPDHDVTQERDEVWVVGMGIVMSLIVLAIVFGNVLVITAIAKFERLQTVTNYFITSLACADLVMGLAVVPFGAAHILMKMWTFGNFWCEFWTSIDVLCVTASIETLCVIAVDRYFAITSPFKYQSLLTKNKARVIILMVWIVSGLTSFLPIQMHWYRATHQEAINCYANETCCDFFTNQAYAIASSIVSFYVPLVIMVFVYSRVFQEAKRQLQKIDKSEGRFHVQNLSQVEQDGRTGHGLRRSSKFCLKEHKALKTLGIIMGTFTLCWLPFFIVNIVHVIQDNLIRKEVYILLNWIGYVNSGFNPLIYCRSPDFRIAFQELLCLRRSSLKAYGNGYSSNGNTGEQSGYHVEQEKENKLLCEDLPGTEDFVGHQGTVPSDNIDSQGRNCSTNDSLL
Test: Binding affinity to the human beta-2 adrenergic receptor assayed using [125I]iodocyanopindolol as radioligand in CHO cells
One number for each entry, in nM.

// worked examples, IC50 included
O=[N+]([O-])/C=C(\Nc1ccc(CCNC[C@H](O)c2cccnc2)cc1)Nc1cccc2ccccc12; 370
CCCCCCCCc1csc(N2CCc3ccc(N/C(=N/c4ccc(CCNC[C@H](O)c5cccnc5)cc4)NC#N)cc32)n1; 66
N#CN=C(Nc1ccc(CCNC[C@H](O)c2cccnc2)cc1)Nc1cccc2ccccc12; 570

For record `N#CN=C(Nc1ccc(CCNC[C@H](O)c2cccnc2)cc1)Nc1ccc2c(c1)CCN2c1nc(-c2ccc(OC(F)(F)F)cc2)cs1` the listed IC50 is 180

---

Biological target: Beta-3 adrenergic receptor (Homo sapiens)
Assay: In vitro efficacy at human beta-3 adrenergic receptor.
Sequence (P13945 whole entry): as the sequence (P13945 whole entry, looked up) above
Response field label: string, one of T (EC50 strictly below 60 nM) or F.

N#CN/C(=N\c1cccc2c1CCN2c1nc(-c2ccc(OC(F)(F)F)cc2)cs1)Nc1ccc(CCNC[C@H](O)c2cccnc2)cc1; T
N#CN/C(=N\c1cccc(Oc2ccccc2)c1)Nc1ccc(CCNC[C@H](O)c2cccnc2)cc1; T
NC(=O)c1cccc(N/C(=C/[N+](=O)[O-])Nc2ccc(CCNC[C@H](O)c3cccnc3)cc2)c1; T
N#CN/C(=N\c1ccc(I)cc1)Nc1ccc(CCNC[C@H](O)c2cccnc2)cc1; F
O=[N+]([O-])/C=C(\Nc1ccc(CCNC[C@H](O)c2cccnc2)cc1)Nc1cccc(I)c1; T

input: Lab note: confirm whether the reported EC50 for this compound is below 60 nM, equality not counting. compound: `O=[N+]([O-])/C=C(\Nc1ccc(CCNC[C@H](O)c2cccnc2)cc1)Nc1cccc(F)c1`
output: F
